Target: Thyroid peroxidase (Homo sapiens, UniProt P07202)
Sequence (P07202 whole entry): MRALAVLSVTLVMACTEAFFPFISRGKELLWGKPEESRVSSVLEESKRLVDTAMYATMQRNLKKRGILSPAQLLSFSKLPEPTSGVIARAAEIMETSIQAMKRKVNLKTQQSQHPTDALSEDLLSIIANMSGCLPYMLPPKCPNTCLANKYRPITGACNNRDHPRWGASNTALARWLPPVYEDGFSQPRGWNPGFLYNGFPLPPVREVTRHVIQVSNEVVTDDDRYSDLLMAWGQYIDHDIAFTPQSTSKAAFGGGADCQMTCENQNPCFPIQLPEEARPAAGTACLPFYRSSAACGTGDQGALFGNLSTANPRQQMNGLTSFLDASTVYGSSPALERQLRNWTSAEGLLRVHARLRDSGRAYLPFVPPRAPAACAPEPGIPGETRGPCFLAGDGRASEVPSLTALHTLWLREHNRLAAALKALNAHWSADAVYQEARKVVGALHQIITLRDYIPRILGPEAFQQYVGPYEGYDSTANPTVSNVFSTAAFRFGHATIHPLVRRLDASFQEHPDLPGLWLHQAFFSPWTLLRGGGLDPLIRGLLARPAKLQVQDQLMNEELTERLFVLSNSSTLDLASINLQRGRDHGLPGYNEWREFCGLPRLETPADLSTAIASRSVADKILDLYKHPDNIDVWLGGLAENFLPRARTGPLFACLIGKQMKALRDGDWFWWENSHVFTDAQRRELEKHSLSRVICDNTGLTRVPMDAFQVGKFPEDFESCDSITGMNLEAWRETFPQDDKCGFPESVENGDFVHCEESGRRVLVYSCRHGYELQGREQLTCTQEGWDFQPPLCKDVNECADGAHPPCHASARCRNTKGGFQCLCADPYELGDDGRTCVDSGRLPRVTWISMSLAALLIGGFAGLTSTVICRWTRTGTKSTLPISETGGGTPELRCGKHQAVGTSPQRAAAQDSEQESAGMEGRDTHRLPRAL
Please find below IC50 measurements for Thyroid peroxidase (Homo sapiens, UniProt P07202), combined from several publications.
assay-endpoint: IC50 (µM)

Examples with answers:
>>> val("CN(C)Cc1ccc(-n2cc(-c3ccc4cc[nH]c4c3)c3c(Cl)ccnc32)cc1")
5.3
>>> val("FC(F)(F)c1nn(-c2ccc(Cc3nc[nH]n3)cc2)cc1-c1ccc2cc[nH]c2c1")
5.9
>>> val("Nc1cc(Cc2ccn(Cc3cccc(O[C@H]4CCNC4)c3)n2)c2nn[nH]c2n1")
14
>>> val("Nc1cc(Cc2ccn(Cc3ccc4ccccc4c3)n2)c2nn[nH]c2n1")
1.1

[I] Nc1cc([C@H](CCOCc2ccccc2)c2ccccc2)c2nn[nH]c2n1
[II] Nc1cc(Cc2ccn(Cc3ccccc3)n2)c2nn[nH]c2n1
[III] Nc1cc(Cc2ccn(Cc3cccc(-c4ccccc4)c3)n2)c2nn[nH]c2n1
[IV] Nc1cc(Cc2ccn(-c3ccc(F)cc3)n2)c2nn[nH]c2n1
Endpoint returns the given molecules ordered by ascending IC50. Put the labels in the requested order and list them out.
IV, III, II, I
(IV: 0.7 µM, III: 1.1 µM, II: 2.3 µM, I: 6.3 µM)

====

Field pIC50: reported value for Thyroid peroxidase (Homo sapiens); entries drawn from several documents.
pIC50: −log10 of the molar value.
assay-endpoint: pIC50

Some entries whose results are on file:
>>> val("Nc1cc(Cc2ccn(Cc3cccc(Oc4cccc5c4CNC5)c3)n2)c2nn[nH]c2n1")
5.77
>>> val("Nc1nc(OCc2ccccc2)c2[nH]nnc2n1")
4.38
>>> val("Nc1cc(Cc2ccn(Cc3cccc(Oc4ccccc4)c3)n2)c2nn[nH]c2n1")
5.96

[I] Nc1cc(Cc2ccn(-c3cccc(-c4ccccc4)c3)n2)c2nn[nH]c2n1
[II] Nc1cc(Cc2ccccc2)c2nn[nH]c2n1
Of the two listed items, which has the higher pIC50? First: I Second: II Your answer should be the label of the entry you select.
I
(I: 6.15, II: 5.66)
